Target: T1, UL128/UL131A co-expressed from MVA in BHK-21 cells (human cytomegalovirus, UniProt P16837 28-171; F5HET4 19-129)
T1 construct: whole, on cells
T1 sequence (P16837 28-171 limits assumed, chain 1 of 2): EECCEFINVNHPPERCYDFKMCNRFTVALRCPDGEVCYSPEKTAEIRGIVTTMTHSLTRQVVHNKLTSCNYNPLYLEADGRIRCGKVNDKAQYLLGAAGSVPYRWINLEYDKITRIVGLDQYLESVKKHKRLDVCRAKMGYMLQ
T1 sequence (F5HET4 19-129 limits assumed, chain 2 of 2): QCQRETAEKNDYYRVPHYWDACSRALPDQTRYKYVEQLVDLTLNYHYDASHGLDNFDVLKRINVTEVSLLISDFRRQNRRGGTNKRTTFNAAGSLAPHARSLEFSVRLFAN
Experiment: intracellular FC, MVA-infected BHK-21

# binder, binding result
rows = [
    ("62-11 (antibody, V domains shown, also called NAb 62-11) VH: QVQLQQPGAELVRPGASVKLSCKASGYTFTSYWMNWVKQRPGQGLEWIGMIDPSDSETHYNQMFKDKATLTVDKSSSTAYMQLSSLTSEDSAVYYCSNGYSSFAYWGQGTLVTVSV VL: DVQMTQTTSSLSASLGDRVTISCSASQGISNYLNWYQQKPDGTVKLLIYDTSSLHSGVPSRFSGSGSGTDYSLTISNLEPEDIATYYCQQYSKLPYTFGGGTKLEIK", "no binding"),
    ("62-100 (antibody, V domains shown, also called NAb 62-100) VH: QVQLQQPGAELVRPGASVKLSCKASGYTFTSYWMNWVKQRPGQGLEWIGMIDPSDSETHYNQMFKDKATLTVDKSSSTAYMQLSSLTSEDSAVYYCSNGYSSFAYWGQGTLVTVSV VL: DIVLTQSPATLSVTPGDSVSLSCRASQSISNNLHWYQQKSHESPRLLIKYASQSISGIPSRFSGSGSGTDFTLSINSVETEDFGKYVCQQSNSWPLTFGSGTKLEIK", "no binding"),
    ("21E9 (antibody, V domains shown, also called NAb 21E9) VH: QIQLVQSGPELKKPGETVKISCKASGYTFTIYGMNWVKQAPGKGLKWMGWINTYTGEPTYADDFRGRFAFSLETSASTAYLQINNLKNEDTATYFCARKGYYGSSGYFDYWGQGTTLTVSS VL: SIVMTQTPKFLLVSAGDRVTITCKASQSVSNDVSWYQQKPGQSPKLLIYYASNRYTGVPDRFTGSGYGTDFTFTISTVQAEDLAVYFCQQDYSSPWTFGGGTKLEIK", "no binding"),
]
